# Test system: TK-10 renal
# PROTOCOL NOTES: NCI tumour cell line growth inhibition, 48 h
MEASURE NAME: TGI (µM)
Report only the number, with the unit µM understood.

Record Cn1cc(-c2nc(-c3cn(C)c4ncccc34)cs2)c2cc(F)ccc21 : what is its TGI with TK-10 renal? 38

Param readout= TGI; system= TK-10 renal; entry= CC1(C)CC[C@]2(C(=O)O)CC[C@]3(C)C(=CC[C@@H]4[C@@]5(C)CC[C@@H]6OC(C)(C)OC[C@@]6(C)[C@@H]5CC[C@]43C)[C@H]2C1 ; returns value. 32.7

Form entry - test system: TK-10 renal; read-out: TGI; compound: Nc1nc(Cl)cc(NCC2(CO)CCC(OCc3ccccc3)C2)n1 (stereo not given) 60.5

Fill in the recorded TGI for this compound, with TK-10 renal as test system: COc1cccc(-c2cc(NCc3ccc4c(c3)OCO4)nc(N)n2)c1 29

TGI of CC[C@]12C=CCN3CCC4(c5cc(N=Nc6ccc([N+](=O)[O-])cc6)c(OC)cc5N(C)[C@H]4[C@@](O)(C(=O)OC)[C@@H]1OC(C)=O)[C@@H]32 (stereo not given in full) on TK-10 renal? 63

Tell me reported TGI for Cc1cc(Cl)ccc1Nc1nc(C(F)(F)F)ccc1C(=O)N/N=C/c1ccc(F)cc1 , tested with TK-10 renal. 7.6

Look up TGI with TK-10 renal for this compound: CCCCN1C(=O)C[C@H]2[C@@H]3CCc4cc(OCCN5CCCC5)ccc4[C@H]3CC[C@]2(C)C1=O 28.3

Give TK-10 renal TGI for O=C1C=CC(=O)N1CCCCCCCCCCN1C(=O)C=CC1=O 69

---

# System: UACC-257 melanoma
# PROTOCOL NOTES: NCI tumour cell line growth inhibition, 48 h
Exercise: for every item that follows, state its recorded TGI.

Entry Cc1nn(C(=O)c2ccncc2)c2c1C(c1ccccc1O)SC(N)=N2 (stereo not drawn) : reported TGI = ? > 10 µM

Any idea what TGI was measured for Nc1nn(C(=O)Nc2ccc(Cc3ccccc3)cc2)c2ccccc12 ? 50.9 µM

// lookup TGI for O=CN/C=C/c1ccccc1O > 100 µM

For the molecule O=C(O)CCCC#CCCCC(=O)O , what TGI is on record? > 100 µM

Recorded TGI for COC(=O)c1cc(/C=C2\Cc3cc4c(cc3C2=O)CCC4)cc2c1CCC2 , please? > 100 µM

Which TGI is reported for this molecule? O=S(=O)(c1ccccc1)C1CN(Cc2ccccc2)CCN(Cc2ccccc2)C1 > 100 µM

TGI for Cc1ccc2nc(Cl)c(/C=N/N3C(=O)/C(=C/Cc4ccco4)N=C3c3ccccc3)cc2c1 ? 71.8 µM

Item under review: NS(=O)(=O)c1ccc(NCc2cnc3ccccc3c2)cc1 . Reported TGI? > 100 µM

---

# System: DLD-1 colon
# PROTOCOL NOTES: NCI tumour cell line growth inhibition, 48 h
Kindly state TGI for each of the entries shown.

What measured TGI goes with CCCN1CN(C(C(=O)N[C@@H]2C(=O)N3C(C(=O)O)=C(C)CSC23)c2ccccc2)CSC1=S (some centres not stated) ? > 100 µM

Recorded TGI of Clc1ccc(CCn2cncn2)c(Cl)c1 , please. > 100 µM

Would you kindly share the measured TGI for O=[N+]([O-])c1ccc(C2N3CCCCC3[C@@H]3c4[nH]c5ccccc5c4CCN23)cc1 (some centres not stated) ? 57.7 µM

Look up TGI: O=C(CCc1cc(-c2ccco2)n(-c2ccc([N+](=O)[O-])cc2[N+](=O)[O-])n1)Nc1ccccc1 > 100 µM

Need TGI of CCC(/C=C/c1ccccc1)=N\N=C(\C=C\c1ccccc1)CC , thanks. > 100 µM

Which measured TGI value corresponds to Cc1cc2c(=O)cc(-c3ccc(C(=O)O)cc3)oc2c(C(=O)O)c1C ? > 100 µM

Entry COC1(C)Cc2c(c(C)c(O)c3c2C(=O)C=C(Cl)C3=O)O1 (configuration not stated) has what TGI? 37.1 µM

I'd like to know its TGI. The compound in question is O=C(Cc1nc2ccccc2s1)NC12CC3CC(CC(C3)C1)C2 > 100 µM

Sample O=c1nc2[nH]nc(-c3ccccc3)c2n[nH]1 — what was its TGI? > 100 µM

Report TGI for COc1ccc(C2S/C(=C\c3cccc([N+](=O)[O-])c3)C(=O)N2NC(=O)Cc2ccccc2)cc1 (configuration not stated) please. > 100 µM

Look up TGI for this compound: CC(C)(C)C1CCN(C(=O)c2ccccc2)CC1 > 100 µM

Consider the compound shown here: COC(=O)/C(Cl)=C1/CC1COCc1ccccc1 (configuration not stated) What is its recorded TGI? 45.8 µM

The values you see were collected from PubChem BioAssay (NCI).
